system_tested: T1, Human CD3eg linker (human)
T1 construct: single-chain construct; also called recombinant human CD3
T1 chain: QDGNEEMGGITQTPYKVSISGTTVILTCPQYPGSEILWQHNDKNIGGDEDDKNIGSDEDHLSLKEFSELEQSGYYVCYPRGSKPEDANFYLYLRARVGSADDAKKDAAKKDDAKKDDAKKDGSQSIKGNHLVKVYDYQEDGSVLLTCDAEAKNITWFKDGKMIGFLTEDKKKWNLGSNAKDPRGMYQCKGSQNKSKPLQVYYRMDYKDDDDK
protocol_details: SPR, vs unmutated H183/L072
fold change of affinity for assorted binders
Please reply with the bare figure in fold and do not write the unit itself.

dBBDu183H A102Y/dBBDu072L (antibody, name in Kabat numbering, V domains shown) VH: QVQLVESGGGLVQPGRSLRLSCAASGFTFSNAWMHWVRQAPGKGLEWVAQIKDKGNAYAAYYAPSVKGRFTISRDDSKNSIYLQMNSLKTEDTAVYYCHYVHYASASTVLPAFGVDYWGQGTTVTVSS VL: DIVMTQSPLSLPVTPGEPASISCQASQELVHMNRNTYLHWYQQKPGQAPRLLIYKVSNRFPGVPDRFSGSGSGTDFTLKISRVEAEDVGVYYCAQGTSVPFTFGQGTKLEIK; 2.5
dBBDu183H V100iY/dBBDu072L (antibody, name in Kabat numbering, V domains shown) VH: QVQLVESGGGLVQPGRSLRLSCAASGFTFSNAWMHWVRQAPGKGLEWVAQIKDKGNAYAAYYAPSVKGRFTISRDDSKNSIYLQMNSLKTEDTAVYYCHYVHYASASTVLPAFGYDAWGQGTTVTVSS VL: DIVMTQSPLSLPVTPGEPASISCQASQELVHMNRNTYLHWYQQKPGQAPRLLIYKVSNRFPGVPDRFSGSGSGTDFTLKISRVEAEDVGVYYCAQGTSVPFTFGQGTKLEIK; 3

Consider dBBDu183H G100hR/dBBDu072L (antibody, name in Kabat numbering, V domains shown) VH: QVQLVESGGGLVQPGRSLRLSCAASGFTFSNAWMHWVRQAPGKGLEWVAQIKDKGNAYAAYYAPSVKGRFTISRDDSKNSIYLQMNSLKTEDTAVYYCHYVHYASASTVLPAFRVDAWGQGTTVTVSS VL: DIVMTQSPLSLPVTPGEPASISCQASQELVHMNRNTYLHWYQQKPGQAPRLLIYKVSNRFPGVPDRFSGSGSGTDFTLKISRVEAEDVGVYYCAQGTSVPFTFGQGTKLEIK . Its measured fold change of affinity is 0.4

Consider dBBDu183H S62Q/dBBDu072L (antibody, name in Kabat numbering, V domains shown) VH: QVQLVESGGGLVQPGRSLRLSCAASGFTFSNAWMHWVRQAPGKGLEWVAQIKDKGNAYAAYYAPQVKGRFTISRDDSKNSIYLQMNSLKTEDTAVYYCHYVHYASASTVLPAFGVDAWGQGTTVTVSS VL: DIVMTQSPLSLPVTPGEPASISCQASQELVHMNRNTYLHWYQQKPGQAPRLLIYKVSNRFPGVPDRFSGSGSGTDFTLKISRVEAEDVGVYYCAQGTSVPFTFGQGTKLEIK . Its measured fold change of affinity is 1.3

Consider dBBDu183H H93S/dBBDu072L (antibody, name in Kabat numbering, V domains shown) VH: QVQLVESGGGLVQPGRSLRLSCAASGFTFSNAWMHWVRQAPGKGLEWVAQIKDKGNAYAAYYAPSVKGRFTISRDDSKNSIYLQMNSLKTEDTAVYYCSYVHYASASTVLPAFGVDAWGQGTTVTVSS VL: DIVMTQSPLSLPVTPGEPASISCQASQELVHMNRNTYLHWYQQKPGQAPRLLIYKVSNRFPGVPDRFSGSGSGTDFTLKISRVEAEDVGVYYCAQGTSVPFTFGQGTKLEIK . Its measured fold change of affinity is 0
